Method notes: Biological half-life in aqueous medium (period within which the biological activity drops to the half)
Assay type: physicochemical
Test settings: aqueous medium at pH=7
Endpoint name: half-life (min)

| Item smiles | Endpoint name | Result |
| --- | --- | --- |
| CCCCC[C@H](O)/C=C/[C@@H]1[C@H]2C/C(=C/CCCC(=O)O)O[C@H]2C[C@H]1O | half-life | 3 |

Where do the numbers come from? From patent US4451483A.
